Each recorded value in this set is attributed to ChEMBL document CHEMBL1135117.

- ASSAY OVERVIEW: Bioavailability in rat
- Assay type: ADME, organism-based
- CONDITIONS: in vivo
Provide the recorded bioavailability for the entries that follow.

Q: Bench note: what bioavailability did "O=C(c1ccc2oc(-c3cncc(Cn4cc(C(F)(F)F)ccc4=O)c3)cc2c1)N1CCC(N2C(=O)OCc3ccccc32)CC1" show?
Result: 41%

Q: Try this molecule too: "O=C(c1ccc2oc(-c3cccc(Cn4cc(C(F)(F)F)ccc4=O)c3)cc2c1)N1CCC(N2C(=O)OCc3ccccc32)CC1"
Result: > 45%

Q: Same again, this time with "O=C(Cn1cc(C(F)(F)F)ccc1=O)NCc1cc2cc(C(=O)N3CCC(N4C(=O)OCc5cc(F)ccc54)CC3)ccc2o1"
Result: 18%

Q: Consider next the molecule "O=C(c1ccc2oc(CN3CCC(n4cc(C(F)(F)F)ccc4=O)CC3)cc2c1)N1CCC(N2C(=O)OCc3ccccc32)CC1" in the same way.
Result: 79%

Q: Repeat with "COc1cc(OC2CCN(C(C)=O)CC2)ccc1C(=O)N1CCC(N2C(=O)OCc3ccccc32)CC1"
Result: 55%

Q: Now the same for "O=C(Cn1cc(C(F)(F)F)ccc1=O)NCc1cc2cc(C(=O)N3CCC(N4C(=O)OCc5ccc(Cl)cc54)CC3)ccc2o1"
Result: 35%
